Field: DC50. Provide a value for each of the compounds that follow.
tested-on: BTK (Homo sapiens)
Construct: endogenous in cells; host or cells: TMD8 cells
Sequence (Q06187 whole entry): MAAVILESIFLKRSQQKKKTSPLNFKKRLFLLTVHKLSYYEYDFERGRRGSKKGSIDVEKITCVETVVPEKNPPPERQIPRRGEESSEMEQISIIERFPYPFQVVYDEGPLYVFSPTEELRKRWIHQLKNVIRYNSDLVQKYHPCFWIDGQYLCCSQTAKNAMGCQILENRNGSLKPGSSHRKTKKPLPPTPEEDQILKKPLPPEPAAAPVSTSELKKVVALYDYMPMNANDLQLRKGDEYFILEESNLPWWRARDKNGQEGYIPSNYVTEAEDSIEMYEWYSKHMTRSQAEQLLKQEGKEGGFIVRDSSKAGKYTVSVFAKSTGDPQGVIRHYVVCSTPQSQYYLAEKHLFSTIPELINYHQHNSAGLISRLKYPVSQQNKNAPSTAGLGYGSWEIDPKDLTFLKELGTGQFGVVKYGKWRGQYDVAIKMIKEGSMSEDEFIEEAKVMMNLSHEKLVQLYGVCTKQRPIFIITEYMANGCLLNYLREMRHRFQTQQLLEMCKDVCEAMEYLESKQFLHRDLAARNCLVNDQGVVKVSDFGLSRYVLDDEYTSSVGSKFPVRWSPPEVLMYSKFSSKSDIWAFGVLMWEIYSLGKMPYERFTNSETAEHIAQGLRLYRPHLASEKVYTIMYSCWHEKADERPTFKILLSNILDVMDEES
test-description: Cellular BTK HTRF assay (BTK degradation) in TMD8 cells
Format: cell-based
setup-conditions: four hours incubation, Total-BTK HTRF relative to DMSO-treated cells

Below: 5 compounds and their reported DC50.
NC(=O)c1ncc(N2CCC[C@@H](N3CCOC3=O)C2)nc1Nc1ccc(C2CCN(CC3CCN(c4ccc5c(=O)n(C6CCC(=O)NC6=O)ccc5c4)CC3)CC2)cc1 (stereo partly shown); < 5 nM
Cc1ncsc1-c1ccc(CNC(=O)[C@@H]2C[C@@H](O)CN2C(=O)[C@@H](NC(=O)C2(F)CC2)C(C)(C)C)c(OCCCCCC(=O)N2CCC(c3ccc(Nc4nc(N5CCC[C@@H](N6CCN(C)C6=O)C5)cnc4C(N)=O)cc3)CC2)c1; > 15 nM
CN1CCN([C@H]2CCCN(c3cnc(C(N)=O)c(Nc4ccc(C5CCN(C[C@H]6CCCN6c6ccc7c(c6)C(=O)N(C6CCC(=O)NC6=O)C7=O)CC5)cc4)n3)C2)C1=O (stereo partly shown); < 5 nM
CN1CCN([C@@H]2CCCN(c3cnc(C(N)=O)c(Nc4ccc(C5(C)CCN(C6CC(Nc7cccc8c7C(=O)N(C7CCC(=O)NC7=O)C8=O)C6)CC5)cc4)n3)C2)C1=O (stereo partly shown); < 5 nM
CN1CCN([C@@H]2CCCN(c3cnc(C(N)=O)c(Nc4ccc(C5CCN(CCCNc6cccc7c6C(=O)N(C6CCC(=O)NC6=O)C7=O)CC5)cc4)n3)C2)C1=O (stereo partly shown); < 5 nM

Dear reader, for each entry below, please note its DC50.
1. CN1CCN([C@@H]2CCCN(c3cnc(C(N)=O)c(Nc4ccc(C5CCN(C[C@@H]6CCN(c7ccc8c(c7)C(=O)N(C7CCC(=O)NC7=O)C8=O)C6)CC5)cc4)n3)C2)C1=O (stereo partly shown)
2. CN1CCN([C@@H]2CCCN(c3cnc(C(N)=O)c(Nc4ccc(C5CCN(C[C@@H]6[C@H]7CN(c8ccc9c(c8)C(=O)N(C8CCC(=O)NC8=O)C9=O)C[C@@H]67)CC5)cc4)n3)C2)C1=O (stereo partly shown)
3. CN1CCN([C@@H]2CCCN(c3cnc(C(N)=O)c(Nc4ccc(N5CCC6CCN(Cc7ccc8c(c7)C(=O)N(N7CCC(=O)NC7=O)C8=O)CC6C5)cc4)n3)C2)C1=O (stereo partly shown)
4. NC(=O)c1ncc(N2CCCC(N3CCCC3=O)C2)nc1Nc1ccc(C2CN(C[C@@H]3CCN(c4ccc5c(c4)C(=O)N(C4CCC(=O)NC4=O)C5=O)C3)C2)cc1 (stereo partly shown)
5. NC(=O)c1ncc(N2CCC[C@H](N3CCCC3=O)C2)nc1Nc1ccc(C2CCN(CC3CCN(c4ccc5c(c4)CCN(C4CCC(=O)NC4=O)C5=O)CC3)CC2)cc1 (stereo partly shown)

< 5 nM
< 5 nM
5 to 15 nM
< 5 nM
< 5 nM
